Origin of measurements: patent US10130830B2

Catalogue of compounds with associated Aerobes count
Tested on: Aerobes
assay.method.text: Preservative action in cosmetic products (Antimicrobial Effectiveness Testing USP 24th Edition), aerobes
Format: cell-based
measurement.setup: Example 10, oil in water emulsion with non-ionic surfactant, 0.2 g/kg, 14 days

compound | assayed.target | Aerobes count
CCCCCCCCCCCC(=O)N[C@@H](CCCN=C(N)N)C(=O)OCC.N[C@@H](CCC(=O)O)C(=O)O [LAE Gl, LAE glutamate] | Aerobes | <2.0 log cfu/g
CC(O)C(=O)O.CCCCCCCCCCCC(=O)N[C@@H](CCCN=C(N)N)C(=O)OCC [LAE La, LAE lactate] | Aerobes | <2.0 log cfu/g
CC(=O)O.CCCCCCCCCCCC(=O)N[C@@H](CCCN=C(N)N)C(=O)OCC [LAE Ac, LAE acetate] | Aerobes | <2.0 log cfu/g

Consider the record given below.
Form field Aerobes count, entry CCCCCCCCCCCC(=O)N[C@@H](CCCN=C(N)N)C(=O)OCC.Cl [LAE] : 3.0 log cfu/g
